# tgt: Aurora-A (Homo sapiens)
# Sequence (O14965 1-403): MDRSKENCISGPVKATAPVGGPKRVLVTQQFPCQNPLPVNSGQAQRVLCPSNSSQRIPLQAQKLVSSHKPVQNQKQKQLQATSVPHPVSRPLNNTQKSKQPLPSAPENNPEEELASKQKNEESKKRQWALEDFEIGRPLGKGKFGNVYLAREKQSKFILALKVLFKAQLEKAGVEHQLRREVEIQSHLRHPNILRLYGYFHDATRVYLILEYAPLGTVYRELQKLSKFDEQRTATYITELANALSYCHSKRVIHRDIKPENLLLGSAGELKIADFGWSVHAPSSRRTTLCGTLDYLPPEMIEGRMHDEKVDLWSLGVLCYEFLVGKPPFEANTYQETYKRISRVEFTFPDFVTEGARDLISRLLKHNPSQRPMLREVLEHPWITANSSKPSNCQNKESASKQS
measurement-label: IC50

Some compounds with known IC50 results, for comparison:
{"columns": ["compound-structure", "tgt", "IC50"],
 "data": [
  ["COc1cc2c(Oc3ccc(CNC(=O)c4ccccc4)cc3)ccnc2cc1OCC[C@H](N)C(=O)O", "Aurora-A (Homo sapiens)", "2 to 5 µM"],
  ["COc1cc2c(Oc3ccc(NCc4ccccc4)cc3)ccnc2cc1OCC[C@H](N)C(=O)O", "Aurora-A (Homo sapiens)", "2 to 5 µM"],
  ["COc1ccc(C(=O)Nc2ccc(Oc3ccnc4cc(OCC[C@H](N)C(=O)O)c(OC)cc34)cc2)cc1", "Aurora-A (Homo sapiens)", "> 5 µM"],
  ["COc1cc2c(Oc3ccc(NC(=O)Nc4ccccc4)cc3)ccnc2cc1OCC[C@@H](N)C(=O)O", "Aurora-A (Homo sapiens)", "< 2 µM"],
  ["COc1cc2c(Oc3ccc(NC(=O)c4cccs4)cc3)ccnc2cc1OCC[C@H](N)C(=O)O", "Aurora-A (Homo sapiens)", "< 2 µM"]
]}

Answer with reported IC50 of `COc1cc2c(Oc3ccc(NC(=O)c4ccccc4)cc3)ccnc2cc1OCC[C@@H](N)C(=O)O`
2 to 5 µM

Answer with the recorded IC50 for the compound listed here: `COc1cc2c(Nc3ccc(NC(=O)c4ccccc4)cc3)c(C#N)cnc2cc1OCC[C@H](NC(=O)OC(C)(C)C)C(=O)OC1CCCC1`
> 5 µM

Given `COc1cc2c(Oc3ccc(NC(=O)c4ccccc4)c(F)c3)ccnc2cc1OCC[C@H](N)C(=O)O` , respond with its IC50.
> 5 µM

Give me measured IC50, please, for this compound: `COc1cc2c(Oc3ccc(NC(=O)Nc4ccc(C(F)(F)F)cc4)cc3F)ccnc2cc1OCC[C@H](N)C(=O)OC1CCCC1`
2 to 5 µM
